- STUDY_TARGET: 17β-HSD3 (Homo sapiens, UniProt P37058)
- Construct: expressed in transfected cells; host or cells: MCF-7 cells stably expressing 17β-HSD3
- Sequence (P37058 whole entry): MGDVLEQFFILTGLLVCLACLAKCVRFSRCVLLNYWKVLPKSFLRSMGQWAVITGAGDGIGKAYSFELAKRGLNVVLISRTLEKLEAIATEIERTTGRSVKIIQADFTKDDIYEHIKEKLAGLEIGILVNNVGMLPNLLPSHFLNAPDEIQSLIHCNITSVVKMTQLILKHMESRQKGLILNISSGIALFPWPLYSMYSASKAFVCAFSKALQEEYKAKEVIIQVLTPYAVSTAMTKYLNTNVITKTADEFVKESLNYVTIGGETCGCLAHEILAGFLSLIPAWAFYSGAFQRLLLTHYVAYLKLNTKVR
- PROTOCOL_DETAILS: Inhibition of 17β-HSD3 in MCF-7 cell lines stably expressing the enzyme (HPLC, tritium labeled androstenedione)
- Assay type: cell-based
- CONDITION_NOTES: MCF7; 10 µM; MCF-7 cells expressing 17β-HSD3, androstenedione 2 nM
Recorded inhibition at 10 µM, one value per entry.
// return numeric value only (unit: %, not printed)

CC(C)CCc1cn(CC[C@@H]2CC(=O)[C@@]3(C)CC[C@@H]4c5ccc(O)cc5CC[C@H]4[C@H]23)nn1
40

*Q* Item C[C@]12CC[C@@H]3c4ccc(O)cc4CC[C@H]3[C@@H]1[C@H](CCn1cc(CC3CCCCC3)nn1)CC2=O has what recorded inhibition at 10 µM?
*A* 50

*Q* Item C[C@]12CC[C@@H]3c4ccc(O)cc4CC[C@H]3[C@@H]1[C@H](CCn1cc(-c3ccccc3F)nn1)CC2=O has what recorded inhibition at 10 µM?
*A* 36

*Q* Item C[C@]12CC[C@@H]3c4ccc(O)cc4CC[C@H]3[C@@H]1[C@H](CCCc1cn(-c3ccc(F)cc3F)nn1)CC2=O has what recorded inhibition at 10 µM?
*A* 57
